# system: T1, human PD-1 expressed on cells (human, UniProt Q15116 25-288)
# T1 construct: whole, on cells; also called CHO-K1/huPD-1; CHO-K1-hPD-1 cells
# T1 sequence (Q15116 25-288): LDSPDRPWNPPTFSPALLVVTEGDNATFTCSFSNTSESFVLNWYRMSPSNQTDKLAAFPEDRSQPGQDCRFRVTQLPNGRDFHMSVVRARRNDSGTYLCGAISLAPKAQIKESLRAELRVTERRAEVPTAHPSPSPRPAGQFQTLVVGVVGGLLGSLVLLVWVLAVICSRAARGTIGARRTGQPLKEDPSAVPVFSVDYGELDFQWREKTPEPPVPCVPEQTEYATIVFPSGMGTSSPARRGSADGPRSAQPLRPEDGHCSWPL
# assay_method_text: cell RBA FACS; competitor PD-L2/Fc

{"binder": "HumAb713-2 (antibody, human IgG1, kappa, L234A L235A, V domains shown, humanized mAb713) VH: EVQLVESGGGLVQPGGSLRLSCAASGFTFSDYGMHWVRQAPGKGLEWVSYISSGSYTIYYADTVKGRFTISRDNAKNSLYLQMNSLRDEDTAVYYCAKRGGSSHVNVMDYWGQGTTVTVSS VL: DIQMTQSPSSLSASVGDRVTITCKASDHINNWLAWYQQKPGKAPKLLIYGATSLETGVPSRFSGSGSGTDFTFTISSLQPEDIATYYCQQYWSPPYTFGGGTKVEIKR", "IC50 / nM": 3.13}
{"binder": "HumAb713-12 (antibody, human IgG1, kappa, L234A L235A, V domains shown, humanized mAb713) VH: EVQLVESGGGLVQPGGSLRLSCAASGFTSSDYGMHWVRQAPGKGLEWVAYISSGSYTIYYADTVKGRFTISRDNAKNSLYLQMNSLRDEDTAVYYCAKRGGSSHVNVMDYWGQGTTVTVSS VL: DIQMTQSPSSLSASVGDRVTITCKASDHINNWLAWYQQKPGKAPKLLISGATSLETGVPSRFSGSGSGTDYTFTISSLQPEDIATYYCQQYWSPPYTFGGGTKVEIKR", "IC50 / nM": 1.59}
{"binder": "HumAb713-6 (antibody, human IgG1, kappa, L234A L235A, V domains shown, humanized mAb713; also called HurnAb713-6) VH: EVQLVESGGGLVQPGGSLRLSCAASGFTFSDYGMHWVRQAPGKGLEWVSYISSGSYTIYYADTVKGRFTISRDNAKNSLYLQMNSLRDEDTAVYYCAKRGGSSHVNVMDYWGQGTTVTVSS VL: DIQMTQSPSSLSASVGDRVTITCKASDHINNWLAWYQQKPGKAPKLLIYGATSLETGVPSRFSGSGSGTDYTFTISSLQPEDIATYYCQQYWSPPYTFGGGTKVEIKR", "IC50 / nM": 1.46}

The values you see were collected from patent US20210188980A1.
